# TARGET_OF_ASSAY: GRK6, recombinant full-length GST-tagged human protein (Homo sapiens)
# Construct: Enzyme: 20 nM GRK6, recombinant full-length GST-tagged human protein; GST
# Sequence (P43250 whole entry): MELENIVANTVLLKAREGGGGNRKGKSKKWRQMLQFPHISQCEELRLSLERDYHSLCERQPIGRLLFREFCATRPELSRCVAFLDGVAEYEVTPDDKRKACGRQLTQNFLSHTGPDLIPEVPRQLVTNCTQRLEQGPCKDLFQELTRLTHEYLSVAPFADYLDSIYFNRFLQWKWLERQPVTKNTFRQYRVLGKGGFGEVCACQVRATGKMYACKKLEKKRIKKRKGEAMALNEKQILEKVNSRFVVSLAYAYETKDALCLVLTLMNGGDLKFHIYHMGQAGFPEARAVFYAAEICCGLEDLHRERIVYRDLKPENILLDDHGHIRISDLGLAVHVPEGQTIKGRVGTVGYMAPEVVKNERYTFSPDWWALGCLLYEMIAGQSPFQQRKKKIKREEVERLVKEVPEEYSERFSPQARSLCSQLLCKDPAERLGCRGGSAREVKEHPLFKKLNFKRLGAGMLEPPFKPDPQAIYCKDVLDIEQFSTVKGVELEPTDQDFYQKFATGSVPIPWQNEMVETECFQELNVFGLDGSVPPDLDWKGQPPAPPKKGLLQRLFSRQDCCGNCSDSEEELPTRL
# PROTOCOL_NOTES: GRK6 assay, IC50 determination (8-point concentration-response)
# Type: biochemical
# APPLIED_CONDITIONS: Series 3 (Table 13); conditions as Example 18
RECORDED_METRIC: IC50 (nM)

Illustrative cases are given below, each with its answer.
1) COc1ccc(C(F)(F)F)cc1-c1ccc(-c2nnc(SCc3nnn[nH]3)[nH]2)o1 [Compound 3-9]; 1280
2) CC(=O)Nc1cccc(-c2ccc(-c3nnc(SCc4nnn[nH]4)[nH]3)o2)c1 [Compound 3-23]; 3810
3) c1cncc(-c2ccc(-c3nnc(SCc4nnn[nH]4)[nH]3)o2)c1 [Compound 3-32]; 8630
4) Clc1cc(Cl)cc(-c2ccc(-c3nnc(SCc4nnn[nH]4)[nH]3)o2)c1 [Compound 3-2]; 545
5) Fc1ccc(-c2ccc(-c3nnc(SCc4nnn[nH]4)[nH]3)o2)cc1F [Compound 3-29]; 6900

a = c1cnc2c(-c3ccc(-c4nnc(SCc5nnn[nH]5)[nH]4)o3)cccc2c1 [Compound 3-14]
b = c1ccc(-c2cccc(-c3ccc(-c4nnc(SCc5nnn[nH]5)[nH]4)o3)c2)cc1 [Compound 3-5]
API: POST /compare with a and b ; response names the item with higher IC50. Respond with the label that goes with your answer.
a
